Measured values drawn from a melting point compilation (Tetko et al.; mined from patent text by program, amines drawn as free bases though some values may be those of a salt) for this set.

[
  {
    "compound": "Cc1cc2c(=O)n3cc(C#N)ccc3nc2s1",
    "melting point": "256 to 258 °C"
  },
  {
    "compound": "Cc1noc2cc3c(cc12)C1(CO3)C(=O)Nc2ccccc21 (stereo unspecified)",
    "melting point": "226 to 227 °C"
  },
  {
    "compound": "Cc1ccc2cc(CCCc3ccncc3)c(=O)n(-c3cccc([N+](=O)[O-])c3)c2n1",
    "melting point": "165 to 166 °C"
  },
  {
    "compound": "CC(C)(C)C(=O)C(C(Sc1ccccc1)c1ccc(F)cc1)n1cncn1 (stereo unspecified)",
    "melting point": "175 °C"
  },
  {
    "compound": "COc1ccc(C2=NCC(NN)=Nc3ccc(Cl)cc32)cc1",
    "melting point": "213 to 215 °C"
  },
  {
    "compound": "COc1ccccc1Nc1cc(-c2c(-c3cccc(C)c3)nc3cccnn23)ccn1",
    "melting point": "157 to 158 °C"
  },
  {
    "compound": "CCOC(=O)C(=O)c1scc(Br)c1Br",
    "melting point": "71 °C"
  },
  {
    "compound": "Cc1oc(-c2ccccc2)nc1COc1ccc(COc2cccnc2CO)cc1",
    "melting point": "118 to 119 °C"
  },
  {
    "compound": "CC12CCC(=O)C(CSc3ccccc3)=C1CCC1C2CCC2(C)C1C=CC2(C)O (stereo unspecified)",
    "melting point": "147 °C"
  },
  {
    "compound": "CC#CC(O)(c1ccc(C)cc1C)c1ccc(C)cc1C",
    "melting point": "64 to 65 °C"
  },
  {
    "compound": "CCON=C(CC)C1=C(OC(=O)c2ccc(Cl)cc2)CC(C)(C)CC1=O",
    "melting point": "60 to 62 °C"
  },
  {
    "compound": "CC(=S)NC[C@H]1CN(c2ccc3c(c2)CCCc2cnoc2-3)C(=O)O1",
    "melting point": "185 to 195 °C"
  },
  {
    "compound": "CC(C)N1CC(C(=O)c2ccc(Cc3ccc(F)cc3)s2)=C(O)C1=O",
    "melting point": "138 to 139 °C"
  },
  {
    "compound": "CC[C@H](Cc1sccc1Cl)Nc1ccnc(O)c1[N+](=O)[O-]",
    "melting point": "150 to 152 °C"
  },
  {
    "compound": "Cc1nn(-c2ccccc2)c2[nH]c(=O)c3ccccc3c12",
    "melting point": "302 to 304 °C"
  },
  {
    "compound": "CON(C)C(=O)Nc1ccc(CN2OCCC(C)(SC)C2=O)c(Cl)c1 (stereo unspecified)",
    "melting point": "88 to 91 °C"
  },
  {
    "compound": "NS(=O)(=O)c1cc2ccc(O)cc2c(S(N)(=O)=O)c1-c1cccc(Cl)c1O",
    "melting point": "135 to 137 °C"
  },
  {
    "compound": "COc1ccc(N2CCOCC2)c2sc(-c3nc4ccccc4[nH]3)nc12",
    "melting point": "284 to 286 °C"
  },
  {
    "compound": "OCCOCCNCc1ccc(-c2cc3ncnc(Nc4ccc5[nH]ccc5c4)c3s2)cc1",
    "melting point": "111 to 119 °C"
  },
  {
    "compound": "O=C1CCCc2cc(O)cc(O)c21",
    "melting point": "209 to 210 °C"
  },
  {
    "compound": "CC1(C)Oc2c([N+](=O)[O-])ccc(Cl)c2C1Br (stereo unspecified)",
    "melting point": "103 to 104 °C"
  },
  {
    "compound": "Cc1ccc(-n2c(-c3sc(Nc4ccccc4)nc3C)nc3ccccc3c2=O)cc1",
    "melting point": "256 to 257 °C"
  },
  {
    "compound": "Cc1ncc2c(n1)-c1ccc(Cl)cc1C(c1ccccc1Cl)=[N+]([O-])C2",
    "melting point": "215 to 216 °C"
  },
  {
    "compound": "Cc1cc(F)ccc1-c1nc(NCCNC(=O)Nc2ccccc2)nc2c1ccc(=O)n2-c1c(F)cccc1F",
    "melting point": "142 to 148 °C"
  },
  {
    "compound": "COc1ccc(-c2cccc(COCCc3cccc(NS(=O)(=O)C(F)(F)F)c3)c2)cc1",
    "melting point": "88 to 90 °C"
  },
  {
    "compound": "O=CNCC(=O)c1cccc(Nc2ccc3ccccc3n2)c1",
    "melting point": "194 to 196 °C"
  },
  {
    "compound": "COc1ccc2nc3n(c(=O)c2c1OC)CS(=O)(=O)N3",
    "melting point": "> 300 °C"
  },
  {
    "compound": "COc1cccc2nc(C(F)(F)F)oc(=O)c12",
    "melting point": "88 to 91 °C"
  },
  {
    "compound": "NCC1CCc2[nH]c3ccc(Cl)c(Cl)c3c2C1 (stereo unspecified)",
    "melting point": "169 to 170 °C"
  },
  {
    "compound": "COc1ccc(CNC(=O)C(OC)OC)cc1OC",
    "melting point": "60 °C"
  },
  {
    "compound": "O=C1CC(c2ccccc2)(c2ccncc2)Oc2ccccc21 (stereo unspecified)",
    "melting point": "123 to 130 °C"
  },
  {
    "compound": "CC(=O)SCc1ccc(C#Cc2ccc(C=O)cc2)cc1",
    "melting point": "128 to 129 °C"
  },
  {
    "compound": "Cc1ccccc1Nc1nc(N(C)c2ccccc2)c2cccc(OCCO)c2n1",
    "melting point": "158 to 160 °C"
  },
  {
    "compound": "O=C1N[C@@H](Cc2ccccc2)[C@@H](COS(=O)(=O)c2ccc([N+](=O)[O-])cc2)O1",
    "melting point": "148 to 150 °C"
  },
  {
    "compound": "C=C1c2ccccc2CC(=O)c2ccccc21",
    "melting point": "84 to 86 °C"
  },
  {
    "compound": "FC(F)(F)Sc1ncn(-c2c(Cl)cc(C(F)(F)F)cc2Cl)c1Br",
    "melting point": "87.5 °C"
  },
  {
    "compound": "O=C(O)C1=Cc2cc(Cl)c(Oc3ccc(Cl)c(F)c3)cc2OC1C(F)(F)F (stereo unspecified)",
    "melting point": "207 °C"
  },
  {
    "compound": "O=C(O)Cc1cccc(OCc2cn(-c3ccc(C(F)(F)F)cn3)nc2C2CCCCC2)c1",
    "melting point": "129 to 130 °C"
  },
  {
    "compound": "N#Cc1ccc(-c2cc(F)c(F)c(OC3SCC(O)C(O)C3O)c2)cn1 (stereo unspecified)",
    "melting point": "173 °C"
  },
  {
    "compound": "COc1ccc(N)c(CCc2ccccn2)c1",
    "melting point": "77.5 to 78.5 °C"
  },
  {
    "compound": "CCOc1cc(-c2cc(C(F)F)n3ncc(C(=O)Nc4cccc(S(N)(=O)=O)c4)c3n2)ccc1C(F)(F)F",
    "melting point": "254 °C"
  }
]
